Biological target: T1, Cynomolgus monkey DLL3 on HEK293 cells (HEK293-cyno DLL3) (Cynomolgus monkey, UniProt Q9NYJ7 27-618 (human entry))
T1 chain: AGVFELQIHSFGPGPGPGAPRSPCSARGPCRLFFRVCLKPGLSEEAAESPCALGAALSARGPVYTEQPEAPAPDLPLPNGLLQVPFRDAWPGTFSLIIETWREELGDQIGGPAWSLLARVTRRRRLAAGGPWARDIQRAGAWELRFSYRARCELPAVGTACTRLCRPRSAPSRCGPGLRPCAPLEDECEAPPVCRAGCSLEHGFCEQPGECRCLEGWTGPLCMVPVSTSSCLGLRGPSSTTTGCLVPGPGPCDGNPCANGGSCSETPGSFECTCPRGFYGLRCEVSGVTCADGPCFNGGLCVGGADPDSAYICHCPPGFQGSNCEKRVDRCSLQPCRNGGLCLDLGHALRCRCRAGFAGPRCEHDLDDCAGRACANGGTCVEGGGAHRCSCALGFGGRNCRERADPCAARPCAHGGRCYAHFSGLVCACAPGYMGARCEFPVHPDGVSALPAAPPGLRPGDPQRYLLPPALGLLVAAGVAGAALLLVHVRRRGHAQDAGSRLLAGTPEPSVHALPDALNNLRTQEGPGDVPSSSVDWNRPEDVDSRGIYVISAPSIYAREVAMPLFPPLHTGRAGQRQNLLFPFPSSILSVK
Test: flow cytometry, HEK293-cyno DLL3 cells
# log10 of EC50 per record follows
Parameter value (number): base-10 log of EC50 in nM.

DLL3-26 camelid-derived anti-DLL3 chimeric antibody (antibody, human IgG1, V domains shown) VH: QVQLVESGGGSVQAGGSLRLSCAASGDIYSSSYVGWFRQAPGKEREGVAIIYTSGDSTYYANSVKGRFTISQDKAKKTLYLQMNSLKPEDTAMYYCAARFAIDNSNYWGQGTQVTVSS	-0.36
DLL3-3 camelid-derived anti-DLL3 chimeric antibody (antibody, human IgG1, V domains shown) VH: DVQLVESGGGSVQAGGSLKLSCKSPTYTISSGYMGWFRQAPGKEREGVAAIYIGGSTTLYADSVKGRFTISADNAEKTVYLQMNTLKPEDSAMYYCAAQLRPNSAYHPLDGRKYNYWGQGTQVTVSS	-1.60
DLL3-12 camelid-derived anti-DLL3 chimeric antibody (antibody, human IgG1, V domains shown) VH: QVQLVESGGGLVQPGESLRLSCAGSGFAFSSYDMHWVRQAPGKDFEWVSSISRDGRGPRYADFVKGRFTISKDNGRNMLYLQLNSLEIEDTAMYYCSKGYPIMGGTTQGTQVTVSS	-1.14

Recorded log10 of EC50 for DLL3-276 camelid-derived anti-DLL3 chimeric antibody (antibody, human IgG1, V domains shown) VH: QVQLVESGGGSVQAGGSLNLSCATSGSTASTTYMGWFRQAPGKGREGVAIIYTARDNPWYANSVKGRFIISQDNAKKTLYLQMNTLKPEDTATYYCAATLANPTRTAWGQGTLVTVSS , please? -0.05

Recorded log10 of EC50 for DLL3-122 camelid-derived anti-DLL3 chimeric antibody (antibody, human IgG1, V domains shown) VH: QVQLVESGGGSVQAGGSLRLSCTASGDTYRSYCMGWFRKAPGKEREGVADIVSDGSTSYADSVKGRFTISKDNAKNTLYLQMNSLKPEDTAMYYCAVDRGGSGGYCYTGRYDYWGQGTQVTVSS , please? -0.38
